Let's look at some log10 IC50 data for UniProtKB P41145 that I collected from the literature.
Sequence (P41145 whole entry): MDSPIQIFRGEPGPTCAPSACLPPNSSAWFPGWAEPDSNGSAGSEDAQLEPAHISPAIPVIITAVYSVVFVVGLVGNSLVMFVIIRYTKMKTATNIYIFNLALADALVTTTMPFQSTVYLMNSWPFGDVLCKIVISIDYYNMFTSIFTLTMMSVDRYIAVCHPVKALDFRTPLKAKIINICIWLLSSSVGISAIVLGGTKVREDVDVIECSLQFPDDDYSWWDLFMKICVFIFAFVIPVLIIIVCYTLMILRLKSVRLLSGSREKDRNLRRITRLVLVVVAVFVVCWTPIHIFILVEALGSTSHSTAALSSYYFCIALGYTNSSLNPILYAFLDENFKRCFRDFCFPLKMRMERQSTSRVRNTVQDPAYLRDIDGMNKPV
Value Type: log10 IC50 (log10 of the value in nM)

>  <Compound Structure String>
Cc1cc(N)c2cc(NC(=O)c3ccccc3COc3ccc(CNCCCNCc4ccc(OCc5ccccc5C(=O)Nc5ccc6nc(C)cc(N)c6c5)cc4)cc3)ccc2n1

>  <log10 IC50>
3.74

$$$$
>  <Compound Structure String>
Cc1cc(N)c2cc(NC(=O)c3ccccc3COc3ccc(CNCCCCCCCN)cc3)ccc2n1

>  <log10 IC50>
3.00

$$$$
>  <Compound Structure String>
Nc1ccnc(-c2cc(-c3ccon3)n(Cc3ccccc3F)n2)n1

>  <log10 IC50>
3.08

$$$$
>  <Compound Structure String>
CCc1ccc(OCc2ccccc2C(=O)Nc2ccc3nc(C)cc(N)c3c2)cc1

>  <log10 IC50>
3.88

$$$$
>  <Compound Structure String>
COCCN[C@@H]1c2ccccc2CC[C@H]1c1ccsc1

>  <log10 IC50>
2.85

$$$$
>  <Compound Structure String>
Cc1cc(N)c2cc(NC(=O)c3ccccc3COc3ccc(CNCCCCCCCCN)cc3)ccc2n1

>  <log10 IC50>
2.94

$$$$
>  <Compound Structure String>
Cc1cc(N)c2cc(NC(=O)c3ccccc3COc3ccc(CNCCCCN)cc3)ccc2n1

>  <log10 IC50>
3.63

$$$$
>  <Compound Structure String>
Cc1cc(N)c2cc(NC(=O)c3ccccc3COc3ccc(CNCCCCCCN)cc3)ccc2n1

>  <log10 IC50>
3.09

$$$$
>  <Compound Structure String>
Cc1cc(N)c2cc(NC(=O)c3ccccc3COc3ccc(CNCCCN)cc3)ccc2n1

>  <log10 IC50>
3.22

$$$$
